Experiment: Drug interaction study: whole blood pharmacokinetics of temsirolimus and sirolimus after single 5-mg i.v. temsirolimus alone or with oral ketoconazole
Format: in vivo, human
Conditions: human, intravenous; single 5 mg i.v. temsirolimus + ketoconazole 400 mg oral; whole blood; mean (CV)
assayMetric: AUC(0-t) (ng·h/mL)
Express it in ng·h/mL; write the number only.

molecule: CO[C@H]1C[C@@H]2CC[C@@H](C)[C@@](O)(O2)C(=O)C(=O)N2CCCC[C@H]2C(=O)O[C@H]([C@H](C)C[C@@H]2CC[C@@H](O)[C@H](OC)C2)CC(=O)[C@H](C)/C=C(\C)[C@@H](O)[C@@H](OC)C(=O)[C@H](C)C[C@H](C)/C=C/C=C/C=C/1C [Sirolimus]
unitSpec: ng·h/mL
endpointValue: 2410

input: Given the molecule CO[C@H]1C[C@@H]2CC[C@@H](C)[C@@](O)(O2)C(=O)C(=O)N2CCCC[C@H]2C(=O)O[C@H]([C@H](C)C[C@@H]2CC[C@@H](OC(=O)C(C)(CO)CO)[C@H](OC)C2)CC(=O)[C@H](C)/C=C(\C)[C@@H](O)[C@@H](OC)C(=O)[C@H](C)C[C@H](C)/C=C/C=C/C=C/1C [Temsirolimus] , what is its reported AUC(0-t)?
output: 969

====

Experiment: Drug interaction study: whole blood pharmacokinetics of temsirolimus and sirolimus after single 5-mg i.v. temsirolimus alone or with oral ketoconazole
Type: in vivo, human
Details: human, whole blood, iv, 5 mg, single 5 mg i.v. temsirolimus alone; whole blood; mean (CV); read-out: Vz
assayMetric: Vd (L)
Express it in L; write the number only.

input: Given the compound CO[C@H]1C[C@@H]2CC[C@@H](C)[C@@](O)(O2)C(=O)C(=O)N2CCCC[C@H]2C(=O)O[C@H]([C@H](C)C[C@@H]2CC[C@@H](OC(=O)C(C)(CO)CO)[C@H](OC)C2)CC(=O)[C@H](C)/C=C(\C)[C@@H](O)[C@@H](OC)C(=O)[C@H](C)C[C@H](C)/C=C/C=C/C=C/1C [Temsirolimus] , what is its reported Vd?
output: 182

====

Assay: Drug interaction study: whole blood pharmacokinetics of temsirolimus and sirolimus after single 5-mg i.v. temsirolimus alone or with oral ketoconazole
Type: in vivo, human
Conditions: human, intravenous; single 5 mg i.v. temsirolimus + ketoconazole 400 mg oral; whole blood; mean (CV)
assayMetric: AUC

smilesCode: CO[C@H]1C[C@@H]2CC[C@@H](C)[C@@](O)(O2)C(=O)C(=O)N2CCCC[C@H]2C(=O)O[C@H]([C@H](C)C[C@@H]2CC[C@@H](OC(=O)C(C)(CO)CO)[C@H](OC)C2)CC(=O)[C@H](C)/C=C(\C)[C@@H](O)[C@@H](OC)C(=O)[C@H](C)C[C@H](C)/C=C/C=C/C=C/1C
assayMetric: AUC
endpointValue: 992 ng·h/mL

Proceeding to the next compound to report its AUC.
input: Given the compound CO[C@H]1C[C@@H]2CC[C@@H](C)[C@@](O)(O2)C(=O)C(=O)N2CCCC[C@H]2C(=O)O[C@H]([C@H](C)C[C@@H]2CC[C@@H](O)[C@H](OC)C2)CC(=O)[C@H](C)/C=C(\C)[C@@H](O)[C@@H](OC)C(=O)[C@H](C)C[C@H](C)/C=C/C=C/C=C/1C , what is its reported AUC?
output: 3890 ng·h/mL
